Test system: Liver microsome
Test: Intrinsic clearance in human liver microsomes measured per gram of tissue at 2.5 uM
Format: ADME
Hi there, I'd appreciate the recorded CLH for every entry that follows.
Quick note: give the figure in mL/min/g, leave out the unit.

Qu. So what's the measured CLH for this one? N#Cc1cc(F)cc(S(=O)(=O)c2sc3ncccc3c2-c2ccccc2F)c1
Ans. 2.4

Qu. Now consider N#Cc1cc(F)cc(S(=O)(=O)c2sc3ncc(N)cc3c2-c2ccncc2F)c1 .
Ans. 0.3

Qu. // repeat for N#Cc1cc(F)cc(S(=O)(=O)c2sc3ncc(N)cc3c2-c2cc(F)cc(F)c2)c1 and report
Ans. 0.8

Qu. Would you mind doing O=S(=O)(c1ccc(Cl)cc1)c1sc2nc(O)ccc2c1-c1ccc(Cl)cc1 as well?
Ans. 0.04

Qu. What do you get for N#Cc1cccc(S(=O)(=O)c2sc3ncccc3c2-c2cccc(Cl)c2)c1 ?
Ans. 2.6

Qu. Query N#Cc1cc(F)cc(S(=O)(=O)c2sc3ncc(N)cc3c2-c2ccccc2F)c1 next
Ans. 1.1

Qu. Another compound: N#Cc1cc(F)cc(S(=O)(=O)c2sc3ncc(N)cc3c2-c2cnccc2Cl)c1
Ans. 1.1

Qu. Please do the same for COc1ccc(-c2c(S(=O)(=O)c3cccc(C#N)c3)sc3ncccc23)cc1 as well.
Ans. 2.7

Qu. Also need N#Cc1cc(F)cc(S(=O)(=O)c2sc3nc(F)ccc3c2-c2cccc(F)c2)c1 , thanks.
Ans. 0.6

Qu. Same again, this time with O=S(=O)(c1ccc(Cl)cc1)c1sc2ncccc2c1-c1cccc(F)c1
Ans. 2.3

Qu. What about this compound? N#Cc1cc(F)cc(S(=O)(=O)c2sc3nc(Cl)ccc3c2-c2ccc(F)cc2)c1
Ans. 0.6

Qu. One more compound: CS(=O)(=O)Nc1cnc2sc(S(=O)(=O)c3ccc(Cl)cc3)c(-c3ccc(Cl)cc3)c2c1
Ans. 0.4

Qu. How about N#Cc1cc(F)cc(S(=O)(=O)c2sc3ncc(N)cc3c2-c2ccc(Cl)cc2)c1 ?
Ans. 1.3

Qu. Please give the result for N#Cc1ccc(-c2c(S(=O)(=O)c3cccc(C#N)c3)sc3ncccc23)cc1 too.
Ans. 0.1

Qu. Now this one: O=S(=O)(c1ccc(Cl)cc1)c1sc2nc(F)ccc2c1-c1ccc(Cl)cc1
Ans. 0.1

Qu. Here is the next compound: O=S(=O)(c1ccc(Cl)cc1)c1sc2ncccc2c1-c1ccc(Cl)cc1
Ans. 1.6

Qu. And the next one, N#Cc1cc(F)cc(S(=O)(=O)c2sc3ncccc3c2-c2cccc(F)c2)c1 ?
Ans. 1.5

Qu. Also N#Cc1cccc(S(=O)(=O)c2sc3nc(Cl)ccc3c2-c2ccc(Cl)cc2)c1 ?
Ans. 1.4

Qu. Also need N#Cc1cc(F)cc(S(=O)(=O)c2sc3ncc(N)cc3c2-c2ccc(F)cc2)c1 , thanks.
Ans. 0.8

Qu. Repeat for the following compound: COc1ccnc2sc(S(=O)(=O)c3ccc(Cl)cc3)c(-c3ccc(Cl)cc3)c12
Ans. 1
